Source: patent US20140193415A1

Below: a set of entries, each annotated with reported kon.
Biological target: human IGF-1R (soluble, analyte in SPR) (human) (UniProt P08069)
Assay: SPR (ProteOn XPR36), 25 C, Fab captured by anti-Fab, IGF-1R as analyte
Write the value in M⁻¹ s⁻¹ as a bare number.

Here is how some binders turned out for kon.
INSERT INTO assay_data (binder, unit_abbrev, observed_value) VALUES
  ('<IGF-1R> F13B5 Fab fragment (affinity-matured <IGF-1R> HUMAB-Clone 18) (Fab, V domains shown) VH: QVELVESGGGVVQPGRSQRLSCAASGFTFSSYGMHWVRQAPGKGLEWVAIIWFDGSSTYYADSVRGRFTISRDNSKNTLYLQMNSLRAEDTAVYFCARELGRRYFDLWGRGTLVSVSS VL: EIVLTQSPATLSLSPGERATLSCRASQSVSSYLAWYQQKPGQAPRLLIYQASKRATGIPARFSGSGSGTDFTLTISSLEPEDFAVYYCQQRSKYPPWTFGQGTKVESK', 'M⁻¹ s⁻¹', 170000),
  ('<IGF-1R> L31D11 Fab fragment (affinity-matured <IGF-1R> HUMAB-Clone 18) (Fab, V domains shown) VH: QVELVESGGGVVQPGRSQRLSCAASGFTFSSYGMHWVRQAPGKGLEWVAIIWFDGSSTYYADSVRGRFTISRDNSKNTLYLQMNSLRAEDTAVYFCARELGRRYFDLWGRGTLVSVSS VL: EIVLTQSPATLSLSPGERATLSCRASRSVYSSLAWYQQKPGQAPRLLIYKASSRATGIPARFSGSGSGTDFTLTISSLEPEDFAVYYCQQRSKWPPWTFGQGTKVESK', 'M⁻¹ s⁻¹', 571000),
  ('<IGF-1R> L31D7 Fab fragment (affinity-matured <IGF-1R> HUMAB-Clone 18) (Fab, V domains shown) VH: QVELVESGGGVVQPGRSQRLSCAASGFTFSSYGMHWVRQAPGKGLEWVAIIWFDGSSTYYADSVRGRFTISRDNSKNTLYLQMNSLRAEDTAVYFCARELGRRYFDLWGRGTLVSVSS VL: EIVLTQSPATLSLSPGERATLSCRASQSVIQSLAWYQQKPGQAPRLLIYRASKRATGIPARFSGSGSGTDFTLTISSLEPEDFAVYYCQQRSKWPPWTFGQGTKVESK', 'M⁻¹ s⁻¹', 523000),
  ('<IGF-1R> L37F7 Fab fragment (affinity-matured <IGF-1R> HUMAB-Clone 18) (Fab, V domains shown) VH: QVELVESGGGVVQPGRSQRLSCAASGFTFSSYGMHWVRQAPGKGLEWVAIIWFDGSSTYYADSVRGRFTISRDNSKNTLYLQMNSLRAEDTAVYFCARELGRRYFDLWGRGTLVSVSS VL: EIVLTQSPATLSLSPGERATLSCRASQSVSSQLAWYQQKPGQAPRLLIYKATNRATGIPARFSGSGSGTDFTLTISSLEPEDFAVYYCQQRSKYPPWTFGQGTKVESK', 'M⁻¹ s⁻¹', 232000);

With those in mind, consider the next binder.
Query kon for <IGF-1R> L39D7 Fab fragment (affinity-matured <IGF-1R> HUMAB-Clone 18) (Fab, V domains shown) VH: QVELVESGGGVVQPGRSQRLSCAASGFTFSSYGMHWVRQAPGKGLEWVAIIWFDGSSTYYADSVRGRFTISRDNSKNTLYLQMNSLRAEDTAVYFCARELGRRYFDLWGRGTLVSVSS VL: EIVLTQSPATLSLSPGERATLSCRASQSVSKQLAWYQQKPGQAPRLLIYNASKRATGIPARFSGSGSGTDFTLTISSLEPEDFAVYYCQQRSKYPPWTFGQGTKVESK
351000
